The following variants are listed with their measured self-cleavage values.
B1: HDV Ribozyme (parent)
chain: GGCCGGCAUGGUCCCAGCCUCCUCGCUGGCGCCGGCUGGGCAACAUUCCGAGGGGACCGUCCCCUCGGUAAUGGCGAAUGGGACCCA

Variants of: B1
Assay: self-cleavage, relative activity (ratio to wild type); higher = more cleavage; co-transcriptional
Field format: numeric only.

Report self-cleavage for C13A G81U please.
0.22

Report self-cleavage for U9G U60G please.
0.875

Report self-cleavage for G31C G59U please.
0.252

Report self-cleavage for U9A U47A please.
1.09

Report self-cleavage for G10C A70G please.
0.516

Report self-cleavage for C57G C63G please.
1.09

Report self-cleavage for G31C C44A please.
0

Report self-cleavage for C44G C66G please.
0.554
